// values below are reported drug sensitivity score
System: MDA-MB-453
Experiment: drug sensitivity score (DSS), single agent (DSS (weighted AUC score)); higher = more sensitive (stronger viability decrease); extreme values may be limits of the assay
Conditions: BLU9931 0 nM; 72 h
Answer with a number only.

- compound: "COc1ccc2[nH]cc(/C=C3\\C(=O)Nc4ccc(NC(=O)CCN5CCCCC5)cc43)c2c1"
  assay_target: "MDA-MB-453"
  measured: 6.1
- compound: "CC(C)(C)c1cc(NC(=O)Nc2ccc(Oc3ccnc4[nH]c(=O)cnc34)cc2F)n(-c2ccccc2)n1"
  assay_target: "MDA-MB-453"
  measured: 7.9
- compound: "O=C(NCc1ccncc1)C12CC3CC(C1)CC(c1ccc(Cl)cc1)(C3)C2"
  assay_target: "MDA-MB-453"
  measured: 1.1

Which drug sensitivity score value belongs to "CO[C@H]1C[C@@H]2CC[C@@H](C)[C@@](O)(O2)C(=O)C(=O)N2CCCC[C@H]2C(=O)O[C@H]([C@H](C)C[C@@H]2CC[C@@H](OP(C)(C)=O)[C@H](OC)C2)CC(=O)[C@H](C)/C=C(\C)[C@@H](O)[C@@H](OC)C(=O)[C@H](C)C[C@H](C)/C=C/C=C/C=C/1C" ?
9.5

Please give the measured drug sensitivity score for this compound: "COc1cc(OC2CCN(C)CC2)ccc1Nc1ncc2c(n1)n(C1CCCC1)c(=O)n2C"
2.6

If you can, please state the reported drug sensitivity score value of "Nc1cc(F)ccc1NC(=O)c1ccc(CNC(=O)/C=C/c2cccnc2)cc1" .
9.8

I'd like to know its drug sensitivity score. The compound in question is "Cc1cc([C@@H](C)Nc2ccccc2C(=O)O)c2nc(N3CCOCC3)cc(=O)n2c1"
7.5

Can you look up the measured drug sensitivity score of CN1CCN(C2CCC(n3cc(-c4ccc(Oc5ccccc5)cc4)c4c(N)ncnc43)CC2)CC1 (stereo unspecified) for me?
8.4

What does the record list as drug sensitivity score for "CCn1c(C(=O)N(C2CC2)C2CC2)cc2c3c(ncn3C)c(Nc3cc(C)n(C)n3)nc21" ?
0

Given the entry CC1(C)NC(=O)N(c2ccc([N+](=O)[O-])c(C(F)(F)F)c2)C1=O [Nilutamide] , report its measured drug sensitivity score.
0

Fill in: drug sensitivity score of "Cc1cn(-c2cc(NC(=O)c3ccc(C)c(Nc4nccc(-c5cccnc5)n4)c3)cc(C(F)(F)F)c2)cn1" is ___
1.7

Field request: drug sensitivity score | item: "CC(=O)Nc1cccc(-n2c(=O)n(C3CC3)c(=O)c3c(Nc4ccc(I)cc4F)n(C)c(=O)c(C)c32)c1"
5.7

Query: drug sensitivity score; subject: "CN(C)C[C@@H]1CCn2cc(c3ccccc32)C2=C(C(=O)NC2=O)c2cn(c3ccccc23)CCO1"
5.3

What measured drug sensitivity score goes with "Cc1nn(C)c(COc2ccc(N3CCN(S(=O)(=O)N(C)C)CC3)cc2)c1-c1cccc2c(CCCOc3cccc4ccccc34)c(C(=O)O)n(CCN3CCOCC3)c12" ?
5.8

What does the data say about its drug sensitivity score? Entry: "O=C(Nc1cccnc1)N1CCC(Cc2cccc(Oc3ccc(C(F)(F)F)cn3)c2)CC1"
1.8

drug sensitivity score for "Cc1cccc(CC(=O)N2CCc3c2ccc(-c2cn(C)c4ncnc(N)c24)c3F)n1" ?
2.2
